Test system: C33A
Test: Confirmatory qHTS for gynecologic anti-cancer compounds from libraries of approved drugs and bioactive compounds; further: nearly all actives have a fitted effect of over 55% in size
Details: gynecologic cancer cell panel viability, ATPlite luminescence, 48 h; series mostly up to 57.6 µM
Inconclusive results are not listed. The source made the active and inactive calls. The call rests on the fitted dose curve; in most records, active means well fitted cell-killing curve with a large enough effect; inconclusive means small, poorly fitted or top-dose-only effect, or effect the other way; inactive means no such curve, though single readings can be large or run the other way.
Return exactly one item of Y for active, N for inactive

Recorded test call requested for CNCc1ccc(-c2[nH]c3cc(F)cc4c3c2CCNC4=O)cc1
N

# lookup: test call for Cc1[nH]c2ccccc2c1CCNCc1ccc(/C=C/C(=O)NO)cc1
Y

Please state the recorded outcome for this compound: CN(c1nccc(=O)[nH]1)C1CCN(c2nc3ccccc3n2Cc2ccc(F)cc2)CC1
N

Recorded test call requested for COC(C(=O)N1Cc2[nH]nc(NC(=O)c3ccc(N4CCN(C)CC4)cc3)c2C1)c1ccccc1 (stereo unspecified)
N

Please let me know the test result on file for CC[C@@]1(O)C(=O)OCc2c1cc1n(c2=O)Cc2cc3cc(O)ccc3nc2-1 .
Y

Hey, what did the test say about CN(C)c1ccc(-c2nc3ncc(Cl)c(N4CCN(CC(=O)Nc5nccs5)CC4)c3[nH]2)cc1 ?
N

---

Tested on: C33A
Assay: Confirmatory qHTS for gynecologic anti-cancer compounds from libraries of approved drugs and bioactive compounds; further: nearly all actives have a fitted effect of over 55% in size; further: potency means the concentration at half of the fitted maximal effect
Conditions: gynecologic cancer cell panel viability, ATPlite luminescence, 48 h; series mostly up to 57.6 µM
Results filed as inconclusive are left out. Activity calls are given as the source filed them. The call rests on the fitted dose curve; in most records, active means well fitted cell-killing curve with a large enough effect; inconclusive means small, poorly fitted or top-dose-only effect, or effect the other way; inactive means no such curve, though single readings can be large or run the other way.
recorded-metric: Potency

Potency in this record for NC(=O)Nc1cc(-c2cccc(F)c2)sc1C(=O)NC1CCCNC1 (centres undefined) : 0.485 µM (active)

Potency measured on CCOc1cc2ncc(C#N)c(Nc3ccc(F)c(Cl)c3)c2cc1NC(=O)/C=C/CN(C)C = 8.63 µM (active)

Reported Potency for CC[C@]1(O)C[C@H]2CN(CCc3c([nH]c4ccccc34)[C@@](C(=O)OC)(c3cc4c(cc3OC)N(C=O)[C@H]3[C@@](O)(C(=O)OC)[C@H](OC(C)=O)[C@]5(CC)C=CCN6CC[C@]43[C@@H]65)C2)C1 was 0.306 µM (active)

---

Tested on: C33A
Assay: Confirmatory qHTS for gynecologic anti-cancer compounds from libraries of approved drugs and bioactive compounds; further: nearly all actives have a fitted effect of over 55% in size
Settings: gynecologic cancer cell panel viability, ATPlite luminescence, 48 h; series mostly up to 57.6 µM
Results filed as inconclusive are left out. Calls of active or inactive are those of the source. The call rests on the fitted dose curve; in most records, active means well fitted cell-killing curve with a large enough effect; inconclusive means small, poorly fitted or top-dose-only effect, or effect the other way; inactive means no such curve, though single readings can be large or run the other way.
Your reply should match one of these outcome classes. active, inactive

What call does the record list for Cc1c(C)n(Cc2ccc(-c3ccccc3C(=O)O)cc2)c2ccc(C(=O)N[C@@H](C)c3ccc([N+](=O)[O-])cc3)cc12 ?
inactive

Dear all, I need the recorded test outcome for Cn1cnc2c(F)c(Nc3ccc(Br)cc3F)c(C(=O)NOCCO)cc21 , thank you.
inactive

Record request — test call for Nc1ccn([C@@H]2O[C@H](CO)[C@@H](O)C2(F)F)c(=O)n1
active

Test call, this compound: CCCC(Nc1nc(-c2ccc(NC(=O)NCC)c(OC)c2)ncc1C)c1cccnc1 (stereo not given)
active

Tell me the recorded outcome of this test for Cc1ccc(C(=O)Nc2ccc(CN3CCN(C)CC3)c(C(F)(F)F)c2)cc1C#Cc1cnc2cccnn12 .
active

Called result for O=C(CCCCCCNC(=O)c1cnc(N(c2ccccc2)c2ccccc2)nc1)NO
active

Write down the call the test reported for this compound. Item: CNc1nc(Nc2ccc(C(=O)N3CCOCC3)cc2OC)ncc1Cl
inactive

How was Fc1cc(-c2cccc3ncc(-c4cnn(C5CCNCC5)c4)nc23)cc(F)c1CN1CCOCC1 classified in this test?
active

Tell me the recorded outcome of this test for CC(C)n1nc(-c2cc3cc(O)ccc3[nH]2)c2c(N)ncnc21 .
active

Which outcome did this test record for the compound O=C(NCC(O)CO)c1ccncc1Nc1ccc(I)cc1F (stereo not given) ?
inactive
